- Tested on: 926638-142-R-J1-PDC complex spheroid viability
- assay: Anticancer human tumor 926638-142-R-J1-PDC patient-derived endometrial carcinoma cell line growth inhibition [POLQ]
- condition-label: second compound 1 µM; first compound 0.316 µM; hits give low values

molecule: CCCS(=O)(=O)Nc1ccc(F)c(C(=O)c2c[nH]c3ncc(-c4ccc(Cl)cc4)cc23)c1F + Cc1cccc(N(C)C(=O)C2C(O)CCN2c2nc(C)cc(C(F)(F)F)c2C#N)c1
measurement-target: 926638-142-R-J1-PDC complex spheroid viability
units-label: %
viability, T/C: 89
//
molecule: CC1COCCN1c1cc(-c2ccnn2C)c2ccnc(-c3ccn[nH]3)c2n1 (stereo not given) + COC1C(OC(N)=O)C(O)C(Oc2ccc3c(O)c(NC(=O)c4ccc(O)c(CC=C(C)C)c4)c(=O)oc3c2C)OC1(C)C
measurement-target: 926638-142-R-J1-PDC complex spheroid viability
units-label: %
viability, T/C: 67.6
//
molecule: C=CCn1c(=O)c2cnc(Nc3ccc(N4CCN(C)CC4)cc3)nc2n1-c1cccc(C(C)(C)O)n1 + Cc1cccc(N(C)C(=O)C2C(O)CCN2c2nc(C)cc(C(F)(F)F)c2C#N)c1
measurement-target: 926638-142-R-J1-PDC complex spheroid viability
units-label: %
viability, T/C: 60.8
//
molecule: C#Cc1c(F)ccc2cc(O)cc(-c3ncc4c(N5CC6CCC(C5)N6)nc(OCC56CCCN5CC(F)C6)nc4c3F)c12 (stereo not given) + Cc1cccc(N(C)C(=O)C2C(O)CCN2c2nc(C)cc(C(F)(F)F)c2C#N)c1
measurement-target: 926638-142-R-J1-PDC complex spheroid viability
units-label: %
viability, T/C: 66.9
//
molecule: Nc1ccn(C2OC(CO)C(O)C2(F)F)c(=O)n1 (stereo not given) + Nc1ccc(C#CCN(C(=O)Cc2ncc(C(F)(F)F)cc2C(F)(F)F)c2ccc(F)cc2)nn1
measurement-target: 926638-142-R-J1-PDC complex spheroid viability
units-label: %
viability, T/C: 51.1

---

Overview of recorded viability, T/C for various molecules
- Tested on: 926638-142-R-J1-PDC complex spheroid viability
- assay: Anticancer human tumor 926638-142-R-J1-PDC cell line growth inhibition [POLQ];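 note: spheroids exposed to drugs for one week before readout; percent viability relative to DMSO vehicle control wells set as 100%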
- condition-label: second compound 10 µM; first compound 0.1 µM; hits give low values
property-measured: viability, T/C

molecule: C=CCn1c(=O)c2cnc(Nc3ccc(N4CCN(C)CC4)cc3)nc2n1-c1cccc(C(C)(C)O)n1 + Nc1ccc(C#CCN(C(=O)Cc2ncc(C(F)(F)F)cc2C(F)(F)F)c2ccc(F)cc2)nn1
data-value: 67.3%
//
molecule: CC1COCCN1c1cc(C2(S(C)(=N)=O)CC2)nc(-c2ccnc3[nH]ccc23)n1 (stereo not given) + Nc1ccc(C#CCN(C(=O)Cc2ncc(C(F)(F)F)cc2C(F)(F)F)c2ccc(F)cc2)nn1
data-value: 90.6%
//
molecule: O=c1[nH]cc(F)c(=O)[nH]1 + Cc1cccc(N(C)C(=O)C2C(O)CCN2c2nc(C)cc(C(F)(F)F)c2C#N)c1
data-value: 98.4%
//
molecule: CC[C@@]1(O)C(=O)OCc2c1cc1n(c2=O)Cc2cc3c(CN(C)C)c(O)ccc3nc2-1 + Cc1cccc(N(C)C(=O)C2C(O)CCN2c2nc(C)cc(C(F)(F)F)c2C#N)c1
data-value: 47.5%
//
molecule: O=C(c1cc(Cc2n[nH]c(=O)c3ccccc23)ccc1F)N1CCN(C(=O)C2CC2)CC1 + Cc1cccc(N(C)C(=O)C2C(O)CCN2c2nc(C)cc(C(F)(F)F)c2C#N)c1
data-value: 80%
//
molecule: CC1COCCN1c1cc(C2(S(C)(=N)=O)CC2)nc(-c2ccnc3[nH]ccc23)n1 (stereo not given) + COC1C(OC(N)=O)C(O)C(Oc2ccc3c(O)c(NC(=O)c4ccc(O)c(CC=C(C)C)c4)c(=O)oc3c2C)OC1(C)C
data-value: 91.4%
//
molecule: CC1COCCN1c1cc(-c2ccnn2C)c2ccnc(-c3ccn[nH]3)c2n1 (stereo not given) + Cc1cccc(N(C)C(=O)C2C(O)CCN2c2nc(C)cc(C(F)(F)F)c2C#N)c1
data-value: 76.5%
//
molecule: C=CC(=O)N1CCN(c2nc(=O)n(-c3c(C)ccnc3C(C)C)c3nc(-c4c(O)cccc4F)c(F)cc23)C(C)C1 (stereo not given) + Cc1cccc(N(C)C(=O)C2C(O)CCN2c2nc(C)cc(C(F)(F)F)c2C#N)c1
data-value: 80.8%
//
molecule: COc1cc2cc(C(=O)CCC(=O)O)sc2cc1OC + COC1C(OC(N)=O)C(O)C(Oc2ccc3c(O)c(NC(=O)c4ccc(O)c(CC=C(C)C)c4)c(=O)oc3c2C)OC1(C)C
data-value: 109%
//
molecule: CC1COCCN1c1cc(C2(O)CC3CCC(C2)O3)c2cnn(-c3ccn[nH]3)c2n1 (stereo not given) + Nc1ccc(C#CCN(C(=O)Cc2ncc(C(F)(F)F)cc2C(F)(F)F)c2ccc(F)cc2)nn1
data-value: 75.1%
//
molecule: O=c1[nH]cc(F)c(=O)[nH]1 + Nc1ccc(C#CCN(C(=O)Cc2ncc(C(F)(F)F)cc2C(F)(F)F)c2ccc(F)cc2)nn1
data-value: 81%
//
molecule: CC[C@@]1(O)C(=O)OCc2c1cc1n(c2=O)Cc2cc3c(CN(C)C)c(O)ccc3nc2-1 + Nc1ccc(C#CCN(C(=O)Cc2ncc(C(F)(F)F)cc2C(F)(F)F)c2ccc(F)cc2)nn1
data-value: 43.9%
//
molecule: CC(C)n1c(=O)n(C)c2cnc3cc(F)c(-c4ccc(OCCCN5CCCCC5)nc4)cc3c21 + Nc1ccc(C#CCN(C(=O)Cc2ncc(C(F)(F)F)cc2C(F)(F)F)c2ccc(F)cc2)nn1
data-value: 85.6%
//
molecule: COc1ccc([C@@H](O)c2cc(-c3ncnc4cc(N5CCOCC5)ccc34)c(F)cc2Cl)nn1 + Nc1ccc(C#CCN(C(=O)Cc2ncc(C(F)(F)F)cc2C(F)(F)F)c2ccc(F)cc2)nn1
data-value: 76.2%
//
molecule: COc1cccc(OCCCN)c1-c1cc(Nc2cnc(C#N)cn2)n[nH]1 + Nc1ccc(C#CCN(C(=O)Cc2ncc(C(F)(F)F)cc2C(F)(F)F)c2ccc(F)cc2)nn1
data-value: 44.2%
//
molecule: C#Cc1c(F)ccc2cc(O)cc(-c3ncc4c(N5CC6CCC(C5)N6)nc(OCC56CCCN5CC(F)C6)nc4c3F)c12 (stereo not given) + Cc1cccc(N(C)C(=O)C2C(O)CCN2c2nc(C)cc(C(F)(F)F)c2C#N)c1
data-value: 79%
//
molecule: CCc1cc2c(N3CCc4c(cc(Cn5ccnc5)cc4-c4cn(C)nc4C(F)(F)F)C3=O)cc(C)nc2c(OC)n1 + Nc1ccc(C#CCN(C(=O)Cc2ncc(C(F)(F)F)cc2C(F)(F)F)c2ccc(F)cc2)nn1
data-value: 63.8%
//
molecule: COc1cc(C2c3cc4c(cc3C(OC3OC5COC(C)OC5C(O)C3O)C3COC(=O)C23)OCO4)cc(OC)c1O (stereo not given) + Nc1ccc(C#CCN(C(=O)Cc2ncc(C(F)(F)F)cc2C(F)(F)F)c2ccc(F)cc2)nn1
data-value: 82.6%
//
molecule: COc1cccc(OCCCN)c1-c1cc(Nc2cnc(C#N)cn2)n[nH]1 + Cc1cccc(N(C)C(=O)C2C(O)CCN2c2nc(C)cc(C(F)(F)F)c2C#N)c1
data-value: 40.2%
//
molecule: CCc1c2c(nc3ccc(O)cc13)-c1cc3c(c(=O)n1C2)COC(=O)[C@]3(O)CC + Cc1cccc(N(C)C(=O)C2C(O)CCN2c2nc(C)cc(C(F)(F)F)c2C#N)c1
data-value: 22.5%

---

- System: 926638-142-R-J1-PDC complex spheroid viability
- assay: Anticancer human tumor 926638-142-R-J1-PDC cell line growth inhibition [POLQ];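 note: spheroids exposed to drugs for one week before readout; percent viability relative to DMSO vehicle control wells set as 100%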
- condition-label: second compound 3.16 µM; first compound 0.0316 µM; hits give low values
Lab note: class by viability, T/C, see lower bin: < 80%; middle bin: ≥ 80% and < 90%; upper bin: ≥ 90%

compound: CC1COCCN1c1cc(-c2ccnn2C)c2ccnc(-c3ccn[nH]3)c2n1 (stereo unspecified) + Cc1cccc(N(C)C(=O)C2C(O)CCN2c2nc(C)cc(C(F)(F)F)c2C#N)c1
label-value: lower bin

compound: CC[C@@]1(O)C(=O)OCc2c1cc1n(c2=O)Cc2cc3c(CN(C)C)c(O)ccc3nc2-1 + Nc1ccc(C#CCN(C(=O)Cc2ncc(C(F)(F)F)cc2C(F)(F)F)c2ccc(F)cc2)nn1
label-value: lower bin

compound: CCc1cc2c(N3CCc4c(cc(Cn5ccnc5)cc4-c4cn(C)nc4C(F)(F)F)C3=O)cc(C)nc2c(OC)n1 + COC1C(OC(N)=O)C(O)C(Oc2ccc3c(O)c(NC(=O)c4ccc(O)c(CC=C(C)C)c4)c(=O)oc3c2C)OC1(C)C
label-value: lower bin

compound: O=C(Nc1ccc(O)c(NS(=O)(=O)c2ccc(F)cc2)c1)c1ccc(-c2ccccc2)cc1 + COC1C(OC(N)=O)C(O)C(Oc2ccc3c(O)c(NC(=O)c4ccc(O)c(CC=C(C)C)c4)c(=O)oc3c2C)OC1(C)C
label-value: upper bin

compound: COc1cccc(OCCCN)c1-c1cc(Nc2cnc(C#N)cn2)n[nH]1 + Nc1ccc(C#CCN(C(=O)Cc2ncc(C(F)(F)F)cc2C(F)(F)F)c2ccc(F)cc2)nn1
label-value: lower bin

compound: COc1cc2cc(C(=O)CCC(=O)O)sc2cc1OC + COC1C(OC(N)=O)C(O)C(Oc2ccc3c(O)c(NC(=O)c4ccc(O)c(CC=C(C)C)c4)c(=O)oc3c2C)OC1(C)C
label-value: upper bin

compound: CNCc1ccc(-c2[nH]c3cc(F)cc4c3c2CCNC4=O)cc1 + Nc1ccc(C#CCN(C(=O)Cc2ncc(C(F)(F)F)cc2C(F)(F)F)c2ccc(F)cc2)nn1
label-value: upper bin

compound: CCc1cc2c(N3CCc4c(cc(Cn5ccnc5)cc4-c4cn(C)nc4C(F)(F)F)C3=O)ccnc2c(OC)n1 + Cc1cccc(N(C)C(=O)C2C(O)CCN2c2nc(C)cc(C(F)(F)F)c2C#N)c1
label-value: middle bin

compound: COc1cc(C2c3cc4c(cc3C(OC3OC5COC(C)OC5C(O)C3O)C3COC(=O)C23)OCO4)cc(OC)c1O (stereo unspecified) + Cc1cccc(N(C)C(=O)C2C(O)CCN2c2nc(C)cc(C(F)(F)F)c2C#N)c1
label-value: lower bin

compound: O=c1[nH]cc(F)c(=O)[nH]1 + Nc1ccc(C#CCN(C(=O)Cc2ncc(C(F)(F)F)cc2C(F)(F)F)c2ccc(F)cc2)nn1
label-value: upper bin

compound: CCc1cc2c(N3CCc4c(cc(Cn5ccnc5)cc4-c4cn(C)nc4C(F)(F)F)C3=O)ccnc2c(OC)n1 + COC1C(OC(N)=O)C(O)C(Oc2ccc3c(O)c(NC(=O)c4ccc(O)c(CC=C(C)C)c4)c(=O)oc3c2C)OC1(C)C
label-value: middle bin

compound: O=C(c1cc(Cc2n[nH]c(=O)c3ccccc23)ccc1F)N1CCN(C(=O)C2CC2)CC1 + Cc1cccc(N(C)C(=O)C2C(O)CCN2c2nc(C)cc(C(F)(F)F)c2C#N)c1
label-value: lower bin
